- TEST_SUMMARY: in vitro
- CONDITION_SET: human, hela cells, % viability
Form field: viability at 28.5 h, 10 µM (one value per entry).
PROPERTY_MEASURED: viability at 28.5 h, 10 µM (%)

COMPOUND | NUMERIC_RESULT
CS(=O)(=O)c1ccc(-c2c[nH]c([C@@H]3COCCN3Cc3ccccc3)n2)cc1 [CBK289300] | 83.1
Nc1ccccc1Sc1ncccc1C(F)(F)F [CBK093758] | 86.2
CCCCN(CCCC)c1nccnc1Cl [CBK001576] | 94.7
CCOC(=O)N1CCC(NC(=O)N(CCC#N)C2CCCCC2)CC1 [CBK156384] | 90.9
CN(C)c1cccc(-c2cnc3[nH]c(=O)n(CCCO)c3n2)c1 [CBK065052] | 102
c1ccc2c(c1)nnn2Cc1nnc2sc(-c3cnccn3)nn12 [CBK268393] | 84.7
CC(=O)c1ccc(NC(=O)Nc2nnc(CCN3CCCC3)s2)cc1 [CBK174990] | 92.6
Cc1nc2cc(C(=O)O)ccc2[nH]1 [CBK220035] | 84.6
Cc1nccn1C1CCCN(C(C)C(=O)NC2(C#N)CCCCC2)C1 (stereo not drawn) [CBK304194] | 87.3
CCCc1cc(C2CCCCCN2C(=O)c2cccnc2)no1 (stereo not drawn) [CBK282987] | 99.5
CCn1ncnc1CN1CCN(Cc2ccccc2CO)CC1 [CBK306717] | 88.1
Cn1c(NCc2ccco2)nc2c1c(=O)n(Cc1cccc(Br)c1)c(=O)n2C [CBK268863] | 79.8
O=C(C1COc2ccccc2O1)N1CCN(c2ncccn2)CC1 (stereo not drawn) [CBK144502] | 116
C=CCNC(=O)c1cc(Br)cnc1NCC1CC1 [CBK076424] | 102
O=C(O)CCSc1ccnc2ccccc12 [CBK122524C] | 93.2
Cc1ccc2[nH]c(C)c(CC(=O)N(C)CCN3CCCCC3)c2c1 [CBK282749] | 87.8
O=C1CCN(Cc2nc(-c3cccc(C(F)(F)F)c3)no2)CCN1 [CBK306368] | 109
O=C(CCn1c(=O)oc2ccccc21)Nc1ccncc1 [CBK287466] | 92.5
Cc1cc(C)n(C(=O)CCC(=O)Nc2cccc(Cl)c2C)n1 [CBK263851] | 99.3
Cc1cccnc1NC(=S)Nc1ccc(S(N)(=O)=O)cc1 [CBK267049] | 111
NS(=O)(=O)c1ccc(NC(=O)CCCN2C(=O)/C(=C/c3ccc(Cl)cc3)SC2=S)cc1 [CBK261302] | 87.9

* * *

- TEST_SUMMARY: in vitro
- CONDITION_SET: human, hela cells, % viability
Please use True for viability at 28.5 h, 10 µM under 90% and False for everything else, ties included.

COMPOUND | CATEGORY
Fc1ccc(C(c2nnnn2C2CCCCC2)N2CCCCC2)cc1 (stereo not drawn) [CBK141670] | False
COc1ccccc1-c1cnn2c(NCC3CCCO3)cc(C)nc12 (stereo not drawn) [CBK304529] | True
COc1ccc(-c2cc(C(F)(F)F)nc(SCC(=O)N(C)c3ccccc3)n2)cc1OC [CBK267628] | False
COCCn1c(SCC(=O)N2CCCc3ccccc32)nc(O)cc1=O [CBK304191] | True
c1cncc(CN2CCC[C@@H]2CN2CCCC2)c1 [CBK149101C] | False
Cc1nc(CNC(=O)NC2CCCN(c3ccn(C)n3)C2=O)c(C)s1 (stereo not drawn) [CBK305926] | False
